tested on: ATP; assay: switch fluorescence ratio, 500 uM ATP over buffer (Cy3 cluster intensity, sum of 5 cycles each) (fold (ratio)); higher = stronger signal-on switching upon ATP binding; sequences stand for … in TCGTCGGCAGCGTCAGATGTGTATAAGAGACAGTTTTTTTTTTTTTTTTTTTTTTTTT…TC; settings: aptamer strand: ATP DNA aptamer (quencher-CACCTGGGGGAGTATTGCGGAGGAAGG + anchor), 100 nM annealed; ATP concentration: 500 uM;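 further: ATP exposure 15 min at 22 °C before imaging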

{"columns": ["SEQUENCE_ENTRY", "switch fluorescence ratio"],
 "data": [
  ["TTAGAGAGGT", 0.988],
  ["GACCCAGGTA", 2.75],
  ["TATGATTTGG", 0.976],
  ["GAAAATGTTT", 1.01],
  ["GGTGTTATGC", 1.01],
  ["TAATAATTGT", 1.02],
  ["GGACTTAGGG", 0.984],
  ["ATTAGAGCGT", 1.01],
  ["ACCTAGTAAA", 0.987],
  ["ATGGAGTCGG", 0.986],
  ["TAACGGGGTA", 1.01],
  ["AGGGGGGGT", 1.05],
  ["ACGATTGGGT", 0.992],
  ["GTTTAAGGAG", 1.02],
  ["TCTTTTTAGT", 1],
  ["AATCGCTCTG", 1.01],
  ["TACAAAAGGT", 1.07],
  ["ACCTACGCGG", 1.97],
  ["TGGGGGTTTC", 0.975],
  ["AGGCTCCTCT", 1.02],
  ["TCAATAGAGG", 1.05],
  ["TAGACCAAAA", 1.02],
  ["GGTTTTCTGG", 1.02],
  ["AAATTAAAGG", 1],
  ["AAGATGTAGT", 0.994],
  ["CGGGTGTATC", 1.03],
  ["AGGGATTTGT", 1.03],
  ["CTGAGCTTCG", 1],
  ["GGGTGTTAGC", 1.02],
  ["TTTGATACCT", 1.27],
  ["ATTGACTTTT", 1],
  ["CAGGGTTGGT", 0.977],
  ["AGGAGATGTA", 1.03],
  ["TTCTTTGACT", 0.983],
  ["AAATGGTGTA", 0.983],
  ["TTATAGGTCT", 1],
  ["TTCGGATTCG", 0.968],
  ["CCAGGTCCGC", 1.46],
  ["TAATATAAAC", 1],
  ["CCCGGTACGG", 1.03],
  ["ATAAGGAGGG", 1],
  ["CAGTTACACG", 0.995],
  ["AATTCTGGCT", 1.01],
  ["ATTGAAAGGC", 1.29],
  ["TCCTTCAACT", 1.08],
  ["TGAAGTGTTT", 1.01],
  ["TTATTACTTA", 0.984],
  ["CAAGGGATTT", 0.982],
  ["TCAGTTTTCT", 1.01],
  ["TATATCGGGT", 0.997],
  ["AGGCTCTTAT", 1.03],
  ["TTGTTAGTTT", 0.983],
  ["ATGTAGTCTT", 1],
  ["TGTGAGGGTT", 0.964],
  ["GCTTATAATG", 0.997],
  ["AGGAGAAGAC", 1.03],
  ["AGATGTCGTT", 0.997],
  ["CTGGTAAAGA", 0.984],
  ["TTGCGAAATC", 1.44],
  ["TTACTCGACG", 1.06],
  ["GGTTAGGGGC", 0.995],
  ["TTTGGGGGCG", 0.983],
  ["AACGTACAGG", 1.65],
  ["TAGGGGGCTG", 1.01],
  ["ATGTGGAGAT", 0.977],
  ["CCATATCGTT", 0.997],
  ["GTTTATGGAC", 1.02],
  ["TTTGCTCTTA", 1],
  ["TACATGCTGC", 1.03],
  ["AACACAAGGT", 1.02],
  ["AGAGATAGGG", 1.01],
  ["ATATTGGTTT", 0.997],
  ["GGAGGAAGTC", 0.975],
  ["TACGTATTTA", 1.13],
  ["ATGTTTTAAC", 1.02],
  ["GGCGAGTTT", 1],
  ["CATGAGGTCG", 0.989],
  ["TGCAGTTTGA", 1.02],
  ["GTAGAAATTC", 1.24]
]}
